subject_of_test: P2Y12 receptor (Homo sapiens, UniProt Q9H244)
Construct: endogenous in cells; host or cells: human platelets (outdated from blood banks or fresh), apyrase-washed, whole
Sequence (Q9H244 whole entry): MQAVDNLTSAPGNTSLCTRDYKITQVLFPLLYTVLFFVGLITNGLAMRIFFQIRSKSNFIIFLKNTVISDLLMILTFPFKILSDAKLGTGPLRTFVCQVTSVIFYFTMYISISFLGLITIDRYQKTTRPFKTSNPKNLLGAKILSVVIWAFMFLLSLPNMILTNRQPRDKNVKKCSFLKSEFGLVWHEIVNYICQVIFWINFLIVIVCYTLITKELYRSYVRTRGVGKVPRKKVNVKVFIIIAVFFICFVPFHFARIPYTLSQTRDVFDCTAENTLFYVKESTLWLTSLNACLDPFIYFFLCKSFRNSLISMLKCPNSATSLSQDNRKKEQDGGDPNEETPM
experimental_protocol: platelet ADP receptor binding assay (ARB): inhibition of [3H]2-MeS-ADP binding to platelets
condition: [3H]2-MeS-ADP binding to apyrase-washed human platelets
observable: IC50

Some molecules with known IC50 results, for comparison:
CNc1cc2[nH]c(=O)n(-c3ccc(C(=O)NC(C(=O)O)c4ccc(Cl)s4)cc3OC)c(=O)c2cc1F (stereo not shown) :: > 500 nM
CNc1cc2ccn(-c3ccc(C(=O)NC(C(=O)O)c4ccc(Cl)s4)cc3)c(=O)c2cc1F (stereo not shown) :: < 50 nM
O=C(NC(C(=O)O)c1ccc(Cl)s1)c1ccc(-n2c(=O)[nH]c3ccc(I)cc3c2=O)cc1 (stereo not shown) :: 50 to 500 nM

(Q) Look at this molecule and give its reported IC50. O=C(Nc1ccc(-n2c(=O)[nH]c3cc(NCc4ccc(F)cc4)ccc3c2=O)cc1)NC(Cc1cccs1)C(=O)O (stereo not shown)
(A) 50 to 500 nM

* * *

subject_of_test: P2Y12 receptor (Homo sapiens)
Construct: endogenous in cells
experimental_protocol: platelet ADP receptor binding assay (ARB): inhibition of [3H]2-MeS-ADP binding to platelets
condition: [3H]2-MeS-ADP binding to apyrase-washed human platelets
observable: IC50

Below, each entry is followed by its recorded IC50 result.
CCc1ccc2c(c1)OCN(c1ccc(C(=O)NC(C(=O)O)c3ccc(Cl)s3)cc1)C2=O (centres unmarked) [Compound 78] :: 50 to 500 nM
CNc1cc2[nH]c(=O)n(-c3ccc(C(=O)NC(C(=O)O)c4ccc(Cl)s4)s3)c(=O)c2cc1F (centres unmarked) [Compound 112] :: 50 to 500 nM
CNc1cc2c(cc1F)C(=O)N(c1ccc(C(=O)NC(C(=O)O)c3ccc(Cl)s3)cc1)CO2 (centres unmarked) [Compound 56] :: < 50 nM
CNc1cc2[nH]c(=O)n(-c3ccc(C(=O)N[C@H](c4noc(=O)[nH]4)c4ccc(Cl)s4)cc3)c(=O)c2cc1F [Compound 46] :: 50 to 500 nM

// switching to the query molecule
(Q) If you can, please state the reported IC50 value of O=C(NC(C(=O)O)c1cccs1)c1ccc(-n2c(=O)[nH]c3ccccc3c2=O)cc1 (centres unmarked) [Compound 39] .
(A) > 500 nM
